Ref: patent US9296745B2

target: UniProtKB Q96PD7; test: In vitro DGAT2 assay, IC50 determination with hDGAT2 membrane fraction; format: biochemical; conditions: geometric mean; background for complete inhibition of DGAT2 obtained with 50 μM (1R,2R)-2-({3′-Fluoro-4′-[(6-fluoro-1,3-benzothiazol-2-yl)amino]-1,1′-biphenyl-4-yl}carbonyl)cyclopentanecarboxylic acid; read-out: DGAT2 IC50
Sequence (Q96PD7 whole entry): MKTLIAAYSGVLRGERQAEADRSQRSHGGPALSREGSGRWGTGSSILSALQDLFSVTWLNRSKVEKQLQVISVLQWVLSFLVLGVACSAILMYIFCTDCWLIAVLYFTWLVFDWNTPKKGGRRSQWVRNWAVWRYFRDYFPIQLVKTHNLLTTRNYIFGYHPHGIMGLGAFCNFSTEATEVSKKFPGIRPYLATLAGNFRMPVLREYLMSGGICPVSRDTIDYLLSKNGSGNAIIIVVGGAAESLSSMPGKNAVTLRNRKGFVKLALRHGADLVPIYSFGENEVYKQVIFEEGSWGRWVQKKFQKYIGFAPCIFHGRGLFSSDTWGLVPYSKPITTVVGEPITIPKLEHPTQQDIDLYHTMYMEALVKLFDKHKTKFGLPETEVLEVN
Response field label: string, one of met (IC50 strictly below 0.2 µM) or not met.

# strict comparison: is reported IC50 < 0.2 µM? input = CC(c1nc2ccc(N3CCC[C@@H](C(=O)N4CCCC4)C3)nc2[nH]1)n1cccn1 (stereo partly shown) [Example 58]
not met

# strict comparison: is reported IC50 < 0.2 µM? input = CNS(=O)(=O)c1cncc(-c2nc3ccc(N4CCC[C@@H](C(=O)N5CCCC5)C4)nc3[nH]2)c1 [Example 100]
met

# strict comparison: is reported IC50 < 0.2 µM? input = O=C(Nc1ccc(C(F)(F)F)nc1)c1nc2ccc(N3CCC[C@@H](C(=O)N4CCCC4)C3)nc2[nH]1 [Example 211]
not met

# strict comparison: is reported IC50 < 0.2 µM? input = Cc1cc(N2CCC[C@@H](C(=O)N3CCCC3)C2)nc2[nH]c(-c3ccnc(C4CC4)n3)nc12 [Example 162]
not met

# strict comparison: is reported IC50 < 0.2 µM? input = C[C@@H]1CCCN1C(=O)[C@@H]1CCCN(c2ccc3nc(-c4ccnc(C5CC5)n4)[nH]c3n2)C1 [Example 67]
met

# strict comparison: is reported IC50 < 0.2 µM? input = O=C([C@@H]1CCCN(c2ccc3nc(-c4ccc5nccn5c4)[nH]c3n2)C1)N1CCCC1 [Example 19]
not met
